Test system: RAN translation of (G4C2)66-No ATG-GFP in HEK293T cells
Assay: Cell-based assay of RAN translation inhibition (GFP/mCherry reporter)
Conditions: Homo sapiens, HEK-293T, 24 h, Table F; HEK293T, 24 h treatment; read-out: RANT IC25
measure_name: IC25

Worked examples follow.
| compound_smiles | IC25 |
| --- | --- |
| CCn1c2ccc(OCC3=NCCN3)cc2c2cc3cnccc3cc21 | 1.25 µM |
| Cc1c2ccncc2cc2c3cc(N4CCNCC4)ccc3n(C)c12 | 2.4 µM |
| Cc1c2ccncc2cc2c3cc(N4CCN(C)CC4)ccc3n(C)c12 | 1.2 µM |
| Cc1c2ccncc2cc2c3cc(OC[C@H](C)N)ccc3n(C)c12 | 0.84 µM |
| Cc1c2ccncc2cc2c3cc(OCC4=NCCN4)ccc3n(CCC(C)C)c12 | > 5 µM |

Answer with the recorded IC25 of `Cc1c2ccncc2cc2c3cc(OCCN4CCC(C)(C)CC4)ccc3n(C)c12` only.
3.8 µM

Answer with the recorded IC25 of `Cn1c2ccc(OCC3=NCCN3)cc2c2cc3cnccc3cc21` only.
0.65 µM
